Just for reference, patent US20120328625A1 is where these values come from.

target: full length human Shh expressed on the cell surface (human, UniProt Q15465 24-462); assay: cell-based or functional assay
test readout: % Inhibition of Gli1 reporter, Co-Culture N = 1, 20 µg/ml (%)
Numbers only here, please. The scale is %.

Consider the reported % Inhibition of Gli1 reporter, Co-Culture N = 1, 20 µg/ml for these binders:
[[record]]
binder = "4B6 (antibody, V domains shown, fully human XenoMouse hybridoma antibody; tested as hybridoma supernatant and as purified antibody; also called MAb 4B6) VH: QVQLVESGGGVVQPGRSLRLSCAASGFTFSTYGMHWVRQAPGKGLEWVAVIWYDGSNEYYADSVKGRFTISRDNSKNTLYLQMNSLRAEDTAVYYCARDLYYYGSGSPFDYWGQGTLVTVSS VL: EIVMTQSPATLSVSPGERATLSCRASQSVSSNLAWYQQKPGQAPRLLIFGISIRATGIPARFSGSGSGTEFTLTISSLQSEDFAVYYCQQYNDWPRPGFGGGTRVEIK"
reported_value = 44

[[record]]
binder = "1G1 (antibody, V domains shown, fully human XenoMouse hybridoma antibody; also called MAb 1G1) VH: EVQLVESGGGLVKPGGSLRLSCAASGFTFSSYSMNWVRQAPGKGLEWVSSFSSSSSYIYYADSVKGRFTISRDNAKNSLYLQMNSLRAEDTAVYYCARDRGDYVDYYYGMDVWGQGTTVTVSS VL: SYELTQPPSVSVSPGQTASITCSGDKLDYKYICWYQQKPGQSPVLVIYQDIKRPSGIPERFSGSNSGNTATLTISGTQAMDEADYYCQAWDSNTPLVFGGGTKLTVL"
reported_value = 44

[[record]]
binder = "1G12 (antibody, V domains shown, fully human XenoMouse hybridoma antibody; tested as hybridoma supernatant and as purified antibody; also called MAb 1G12) VH: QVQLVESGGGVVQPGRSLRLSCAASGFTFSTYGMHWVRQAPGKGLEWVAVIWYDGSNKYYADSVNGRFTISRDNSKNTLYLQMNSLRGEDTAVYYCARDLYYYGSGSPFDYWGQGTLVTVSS VL: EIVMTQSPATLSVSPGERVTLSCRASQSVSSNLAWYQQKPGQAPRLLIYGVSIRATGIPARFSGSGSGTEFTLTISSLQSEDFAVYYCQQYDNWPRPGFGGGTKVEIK"
reported_value = 35

[[record]]
binder = "6D7 (antibody, V domains shown, fully human XenoMouse hybridoma antibody; also called MAb 6D7) VH: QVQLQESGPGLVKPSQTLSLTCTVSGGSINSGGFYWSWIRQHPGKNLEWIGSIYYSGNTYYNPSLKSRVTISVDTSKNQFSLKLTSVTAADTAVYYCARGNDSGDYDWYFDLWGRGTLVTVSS VL: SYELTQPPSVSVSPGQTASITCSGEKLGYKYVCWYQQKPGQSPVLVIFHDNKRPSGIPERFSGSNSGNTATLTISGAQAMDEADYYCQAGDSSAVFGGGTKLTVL"
reported_value = 80


Could you now consider this next binder?
input: I would be grateful if you could share the reported % Inhibition of Gli1 reporter, Co-Culture N = 1, 20 µg/ml for 1A5 (antibody, V domains shown, fully human XenoMouse hybridoma antibody; tested as hybridoma supernatant and as purified antibody; also called MAb 1A5) VH: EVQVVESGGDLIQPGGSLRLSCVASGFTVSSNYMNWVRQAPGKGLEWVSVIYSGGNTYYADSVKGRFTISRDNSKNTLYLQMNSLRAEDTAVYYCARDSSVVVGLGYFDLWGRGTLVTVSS VL: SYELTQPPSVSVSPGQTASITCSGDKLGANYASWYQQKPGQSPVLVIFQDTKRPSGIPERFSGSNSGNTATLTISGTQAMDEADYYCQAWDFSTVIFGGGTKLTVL .
output: 25
